Tested on: EKVX
MEASUREMENT_NOTES: NCI tumour cell line growth inhibition, 48 h
Calls of active or inactive are those of the source. No stated cut-off is given here; in the data, active = GI50 up to about 1.1 µM and inactive = higher.
Write down the outcome that applies. Available outcomes: active, inactive

Recorded test outcome, item CC1=CC(=O)C(C)(C2=NC(C)(C)CO2)c2ccccc21 (stereo not given) inactive

Recorded test outcome, item CC(C)C1C(=O)N(c2c(F)c(F)c(F)c(F)c2F)C(=S)N1CC[S+]([O-])c1ccccc1 (stereo not given) inactive

Recorded test outcome, item COc1cc(OCCN(C)C)c2[nH]c(C(=O)N3CC(CCl)c4ccc(N)cc43)cc2c1 (stereo not given) active

Recorded test outcome, item CC(Nc1cccc(Cl)c1)c1ccncc1 (stereo not given) inactive

Recorded test outcome, item CCC1CN2CCc3cc(OC)c(OC)cc3C2CC1CC1c2cc(OC)c(OC)cc2CCN1C(=O)C(Cc1c[nH]c2ccccc12)NC(=O)OC(C)(C)C (stereo not given) inactive

Recorded test outcome, item CC1=CC2CC(C)C1(C)CCc1ccoc12 (stereo not given) inactive

Recorded test outcome, item C[C@H]1CC[C@@H]2[C@@H](C)C[C@H]3[C@@H]4C(C)(C)OC(=O)[C@]4(C)C(=O)[C@@]23C1=O inactive

Recorded test outcome, item Nc1ncc2c(n1)-c1ccccc1OC2N1CCCCC1 (stereo not given) inactive

Recorded test outcome, item Cc1ccc(OCC2OC(n3cnc4c(N(C)C)nc(Br)nc43)CC2Oc2ccc(C)cc2)cc1 (stereo not given) inactive

Recorded test outcome, item CCNCC(O)c1ccc(N)c([N+](=O)[O-])c1 (stereo not given) inactive
